assayed_system: TRIM8 (Homo sapiens, UniProt Q9BZR9)
Construct: 20,000 THP-1 cells; endogenous in cells; host or cells: THP-1
Sequence (Q9BZR9 whole entry): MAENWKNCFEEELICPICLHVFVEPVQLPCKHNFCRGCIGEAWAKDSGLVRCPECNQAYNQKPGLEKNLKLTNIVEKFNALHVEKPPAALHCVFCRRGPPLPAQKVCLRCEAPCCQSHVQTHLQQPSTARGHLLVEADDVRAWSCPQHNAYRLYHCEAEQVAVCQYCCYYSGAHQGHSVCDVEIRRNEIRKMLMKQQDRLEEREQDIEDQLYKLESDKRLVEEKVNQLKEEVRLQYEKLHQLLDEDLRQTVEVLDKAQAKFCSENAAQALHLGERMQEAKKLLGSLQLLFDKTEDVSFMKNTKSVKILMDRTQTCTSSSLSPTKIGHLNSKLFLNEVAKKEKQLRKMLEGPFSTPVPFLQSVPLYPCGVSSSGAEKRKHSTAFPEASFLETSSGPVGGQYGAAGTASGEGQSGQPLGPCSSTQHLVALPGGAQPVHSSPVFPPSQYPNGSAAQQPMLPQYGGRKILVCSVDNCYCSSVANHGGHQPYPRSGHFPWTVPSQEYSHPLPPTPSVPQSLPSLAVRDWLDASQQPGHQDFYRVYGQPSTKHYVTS
experiment_description: Cell-based screen for TRIM8 inhibition: CXCL9, CXCL10 and CXCL11 accumulation in IFN-γ-stimulated THP-1 cells
test_conditions: THP-1 cells, 10 µM compound 4 hours, then 200 U human IFN-γ, 12 hours, flow cytometer; degree of change from control (<1 inhibition, >1 enhancement); triplicate
Description: A library of small molecule compounds comprising an E2-RING domain or a RING-RING domain was screen for TRIM8 inhibition in a cell-based assay. […] The effect of the stimulation as measured by changes in accumulation levels of the cytokines CXCL9, CXCL10 and CXCL11 in extracellular fluid was determined by flow cytometer after 12 hours and compared to control (IFN-γ stimulation with no compound). […]
Listing of recorded Normalized Average of MIG/CXCL9 by entry.
value_kind: Normalized Average of MIG/CXCL9

1) COc1ccc(Sc2ccc(=O)n(-c3ccc(C(=O)NCCCc4ccccc4)cc3)n2)cc1 [Compound 88]; 0.019
2) COc1ccc(N2CCN(C(=O)c3cc4ccc5cccnc5c4[nH]3)CC2)cc1 [Compound 81]; 0.138
3) CCc1cccc2c(C(CC(=O)N3CCN(c4ccc([N+](=O)[O-])cc4)CC3)c3cccc4c3OCO4)c[nH]c12 (stereo not drawn) [Compound 130]; 7.574
4) COc1ccc(CN2C(=O)NC(=O)/C(=C\c3cccc4ccccc34)C2=O)cc1 [Compound 17]; 2.545
5) COc1ccc(-c2n[nH]c3c2C(c2ccccc2)C2=C(CC(C)(C)CC2=O)N3)cc1 (stereo not drawn) [Compound 76]; 0.085
6) O=C(NCCCc1ccccc1)c1n[nH]c2c1CN(C(=O)c1cc(F)ccc1F)CC2 [Compound 120]; 0.188
